B1: SMTNL2 (parent)
chain: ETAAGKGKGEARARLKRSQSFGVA

- Variants of: B1
- assayProcedure: protein stability index of a GFP-peptide fusion (GPS, HEK-293T) (PSI 1-6); higher = more stable;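 also: lentivirally expressed fusions sorted by FACS into six bins by GFP to DsRed ratio, PSI derived from sequencing read proportions per bin multiplied by bin number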
- conditions: c terminus: a fixed tail appended
Record form. Attribute: protein stability index. Fill in for each entry.
Hey, just send me the number, nothing else.

Query: Please report the recorded protein stability index for A24W .
Result: 3.57

Query: Please report the recorded protein stability index for V23L .
Result: 3.68

Query: Please report the recorded protein stability index for R17L .
Result: 3.76

Query: Please report the recorded protein stability index for K6W .
Result: 3.79

Query: Please report the recorded protein stability index for A4Y .
Result: 4.77

Query: Please report the recorded protein stability index for K16R .
Result: 4.4

Query: Please report the recorded protein stability index for G9A .
Result: 4.12

Query: Please report the recorded protein stability index for L15G .
Result: 4.49

Query: Please report the recorded protein stability index for S20G .
Result: 3.76

Query: Please report the recorded protein stability index for R17Y .
Result: 3.81

Query: Please report the recorded protein stability index for A3H .
Result: 4.31

Query: Please report the recorded protein stability index for A3R .
Result: 4.1

Query: Please report the recorded protein stability index for A13Q .
Result: 4.38

Query: Please report the recorded protein stability index for Q19Y .
Result: 3.89

Query: Please report the recorded protein stability index for A24T .
Result: 4.23

Query: Please report the recorded protein stability index for A13G .
Result: 4.78

Query: Please report the recorded protein stability index for R12S .
Result: 4.92

Query: Please report the recorded protein stability index for A4I .
Result: 4.24

Query: Please report the recorded protein stability index for L15D .
Result: 4.03

Query: Please report the recorded protein stability index for R14Y .
Result: 4.09

Query: Please report the recorded protein stability index for T2N .
Result: 4.86

Query: Please report the recorded protein stability index for V23M .
Result: 4.84

Query: Please report the recorded protein stability index for R17N .
Result: 4.54

Query: Please report the recorded protein stability index for R17Q .
Result: 4.67

Query: Please report the recorded protein stability index for V23E .
Result: 5.35

Query: Please report the recorded protein stability index for G5S .
Result: 4.24

Query: Please report the recorded protein stability index for G22Q .
Result: 4.36

Query: Please report the recorded protein stability index for A11S .
Result: 4.58

Query: Please report the recorded protein stability index for K6F .
Result: 4.56

Query: Please report the recorded protein stability index for G7H .
Result: 4.18

Query: Please report the recorded protein stability index for K16V .
Result: 3.9

Query: Please report the recorded protein stability index for A11R .
Result: 4.73

Query: Please report the recorded protein stability index for E1R .
Result: 3.82

Query: Please report the recorded protein stability index for R12H .
Result: 4.45

Query: Please report the recorded protein stability index for S20R .
Result: 4.09

Query: Please report the recorded protein stability index for K16H .
Result: 4

Query: Please report the recorded protein stability index for R14S .
Result: 4.41

Query: Please report the recorded protein stability index for S18V .
Result: 3.94

Query: Please report the recorded protein stability index for G7W .
Result: 3.03

Query: Please report the recorded protein stability index for L15M .
Result: 3.95

Query: Please report the recorded protein stability index for T2V .
Result: 4.79

Query: Please report the recorded protein stability index for G7S .
Result: 4.22

Query: Please report the recorded protein stability index for S18H .
Result: 4.02

Query: Please report the recorded protein stability index for T2H .
Result: 4.46

Query: Please report the recorded protein stability index for A13K .
Result: 4.86

Query: Please report the recorded protein stability index for G7P .
Result: 4.08
